Values from patent US11351178B2

Record form. Attribute: pIC50. Fill in for each entry.
Biological target: HDAC11 (Homo sapiens)
Construct: purchased BML SE560
Sequence (Q96DB2 1-347): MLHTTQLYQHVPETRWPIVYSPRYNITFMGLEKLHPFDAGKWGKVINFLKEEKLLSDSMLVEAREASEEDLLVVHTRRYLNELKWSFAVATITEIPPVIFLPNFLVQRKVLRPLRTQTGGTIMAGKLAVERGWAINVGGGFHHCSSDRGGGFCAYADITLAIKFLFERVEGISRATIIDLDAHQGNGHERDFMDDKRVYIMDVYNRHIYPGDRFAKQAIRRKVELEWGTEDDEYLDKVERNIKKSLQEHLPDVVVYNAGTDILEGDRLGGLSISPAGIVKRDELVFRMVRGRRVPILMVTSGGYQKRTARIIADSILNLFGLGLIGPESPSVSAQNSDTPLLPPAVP
Assay: Enzymatic test HDAC11
Type: biochemical
Details: Table 3
Give bare numbers, as −log10 of the molar value.

O=C(NO)c1cc(F)c(Cn2nnc(-c3cccs3)n2)c(F)c1 6.01
CN(C)S(=O)(=O)c1cccc(-c2nnn(Cc3ccc(C(=O)NO)cc3)n2)c1 6.29
COc1ccc(C(=O)N[C@@H](Cc2cscn2)c2nc(Cc3ccc(C(=O)NO)cc3)no2)cc1OC 5.57
O=C(NO)c1cc(F)c(Cn2nnnc2-c2cccs2)c(F)c1 5.34

Give pIC50 for all compounds that follow.
1. Cn1c(Sc2c(F)cc(C(=O)NO)cc2F)nnc1-c1cccs1
2. Cn1c(Sc2c(F)cc(C(=O)NO)cc2F)nnc1C(c1ccccc1)c1ccccc1
3. O=C(NO)c1cc(F)c(Cn2nnc(-c3ccco3)n2)c(F)c1

[5.64, 5.68, 6.10]

Give pIC50 for all compounds that follow.
1. O=C(NO)c1ccc(Cn2nnc(-c3ccc(C(F)(F)F)cc3)n2)cc1
2. O=C(NO)c1cc(F)c(Cn2nnc(-c3ccccn3)n2)c(F)c1
3. O=C(NO)c1cc(F)c(Cn2nnc(-c3scc4c3OCCO4)n2)c(F)c1
4. Cn1c(Sc2ccc(C(=O)NO)cc2)nnc1-c1cccs1

1: 6.31; 2: 5.29; 3: 6.18; 4: 6.01
